Test system: SK-MEL-28
Assay: NCI tumour cell line growth inhibition, 48 h
Activity calls are given as the source filed them. Cut-off read from the data, not from the text of the source: active = GI50 up to about 1.1 µM and inactive = higher. Where a SMILES comes first, the peptide text is derived from it. [ ]: non-standard residue; d: D form. The star is where a group is joined. NMeAc5c = CNC1(C(=O)O)CCCC1; Boc = CC(C)(C)OC(=O)*; OBn = c1ccc(CO*)cc1
parameter-measured: GI50

INSERT INTO results (compound, experimental_result) VALUES
  ('CNC(c1ccncc1)C(NC)c1ccncc1 (centres undefined)', '> 100 µM (inactive)'),
  ('O=[PH](O)c1cccs1', '> 100 µM (inactive)'),
  ('C/C(=N/NC(=S)N1CCCCCC1)c1ccccc1O', '8.36 µM (inactive)'),
  ('CN(C(=O)C(Cc1ccccc1)NC(=O)OC(C)(C)C)C1(C(=O)NC(Cc2ccccc2)C(=O)OCc2ccccc2)CCCC1 (stereo not drawn) (Boc-Phe-[NMeAc5c]-Phe-OBn; configuration not given here)', '58.1 µM (inactive)'),
  ('COC(=O)[C@H](Cc1ccccc1)NC(=O)NCCN(CCNC(=O)N[C@@H](Cc1ccccc1)C(=O)OC)C(=O)N[C@@H](Cc1ccccc1)C(=O)OC', '19.4 µM (inactive)'),
  ('O=S1(=O)C[C@@H](O)[C@H](O)CS1', '> 100 µM (inactive)'),
  ('CS(=O)(=O)OCCN1CCC2(CC1)SSC1(CCN(CCOS(C)(=O)=O)CC1)S2', '> 100 µM (inactive)'),
  ('O=C(N/N=C\c1cccc2ccccc12)Nc1ccccc1', '> 100 µM (inactive)'),
  ('Cc1ccc(S(=O)(=O)C2=C([Si](C)(C)C)C3CC2[C@@H]2C4C=CC(CC4)[C@H]32)cc1 (some centres undefined)', '> 100 µM (inactive)');

These data points were gathered from ChEMBL document CHEMBL1201862.
